assay: yeast display, Sf9 membrane polyspecificity reagent, FACS + sequencing; frameworks hold sequencing errors
reportedEndpoint: polyreactivity (PSR sort gate)

Example entries begin here.
QVQLVESGGGLVQAGGSLRLSCAASGSILYLNAMGWYRQAPGKERELVASISSSGGNTYYADSVTGRFTISRDNAKNTVYFQMNSLKPEDTAVYYCNTRWVHRDWYDYWGQGTQVTVSS = high polyreactivity
QVQLVESGGGLVQAGGSLRLSCAASGRTFQINAMGWYRQAPGKERELVAAITWSGGSTYYADSVKGRFTISRDNAKNTVYLQMNSLKPEDTAVYYCNKRYRAYATLNLIAGYNYWGQGTQVTVSS = low polyreactivity
QVQLVESGGGLVQAGGSLRISCAASGRIFGENAMGWYRQAPGKERELVAAIRFSSGSTYYADSVKGRFTISRDNAKNTVYLQMNSLKPEDTAVYYCNADGWYALYEWLAVSGYYWGQGTQVTVSS = low polyreactivity
QVQLVESGGGLVQAGGSLRLSCAASGRTFYDYTMGRYRQAPGKERELVAAISQRGGSTYYADSVKGRFTISRDNAKNTVYLQMNSLKPEDTAVYYCAARTSYSGNKYYYWGQGTQVTVSS = high polyreactivity
QVQLVESGGGLVQAGGSLRLICAASGRTFGVYSMGWYRQAPGKERELVAAISATGGSTYYADSVKGRFTISRDNAKNTVYLQMNSLKPEDTAVYYCARGGTTLYWGQGTQVTVSS = high polyreactivity
QVQLVESGGGLVQAGGTLRLSCGASGGTFYLYTMGWYRPAPGKERELVAAISRGGSTNYADSVKGRFTISRDNAKNTVYLLMNSLIPEDTAVFYCAAVRSTGFRYYYADEYDYWGQGTQVTVSS = low polyreactivity
QVQLVESGGGLVQAGGSLRLSCAASGFIFWYNAMGWYRQAPGKERELVAVISTSGTITYYADSVKGRFTISRDNAKNTVYLQMNSLKPEDTAVYYCAARYYQRANGFGYWGQGTQVTVSS = low polyreactivity
QVQLVESGGGLVQAGGSLRLSCAASGRTSNFNAMGWYRQATGKERELVAAINSDGSTYYADSVKGRFTISRDNAKNTVYLQMNSLKPEDTAVDYCAVRKRPHGYLAFGYWGQGTQVTVSS = low polyreactivity

# polyreactivity (PSR sort gate) of QVQLVESGGGLVQAGGSLRLSCAASGSTFIQNAMGWYTQAPGKERELVAAITSGGGTNYADSVKGRFTISRDNAKNTVYLQMNSLKPEDTAVYYCAAEPFNYVEFWFGWEYQYDYWGQGTQVTVSS = low polyreactivity

# polyreactivity (PSR sort gate) of QGQLGDSGGGLVQAGGSLRLSCAASGLTFWGKVMGWSRPAPGKERELVAAITSGGSTYYADSVKGRFTISRDNAKNTVFLQMNSQKPEDTAVYYCATAFYYSYSEYYYWGQGTQVTVSS = high polyreactivity

# polyreactivity (PSR sort gate) of QVQLVESGGGLVQAGGSLRLSCAASGRTFLYNAMGWYSQATWKERELVASITRRGGTTYYADSVKGRFTISRDNAKNTVYLQMNSLKPEDTAVYYCNAQPGISYYYYGHWYGYWGQGTQVTVSS = high polyreactivity

----------
experiment: yeast display, Sf9 membrane polyspecificity reagent, FACS + sequencing; frameworks hold sequencing errors
reportedEndpoint: polyreactivity (PSR sort gate)

QVQLEESGGGLVQAGGSLRLSCAASGRNFLYNAMGWYRQAPGKERELVAAITASGGTTYYADSVKGRFTISRDNAKNNVYLQMNSLKPEDTAVYYCNAYSYSGERYYWGQGTQVTVSS = high polyreactivity
QVQLVESGGGLVHAGGSLRLSCAASGFTFRSYTMGWYRQAHGKERELVAAITSRGTSTYYADSVKGRFTISRDNAKNTVYLQMNSLKPEDTAVYYCAAPIYNGYASWQVYYWGQGTQVTVSS = high polyreactivity

----------
assay: yeast display, Sf9 membrane polyspecificity reagent, FACS + sequencing; frameworks hold sequencing errors
reportedEndpoint: polyreactivity (PSR sort gate)

Example entries begin here.
QVQLVESGGGLVQAGGSLRLSCADSGIIFYYNAMGWYRQAPGKEREFVAAIDDRGDSTYYADSVKGRFTISRDNAKNTVYLQMNSLKPEDTAVYYCAARDGYLYFDAMDYWGQGTLVTVSS = low polyreactivity
QVQLVESRGGLVQAGGSLRLSCPASGSIFPDNAMGWYRQAPGKERELDAAITRGGSTYYADSEKGRFTISRDNAKNTVYLQMNSLKPEDTAVYYCAVVRYYVSMDNWGQGTQVTVSS = high polyreactivity
QVQLVDSGGGLVQAGGSLRLSCAASGRTFYYYAMGWYRQAPGKERELVADIRGRGGSTYYADSVKGRFTISRDNAKNTVYLQMNSLKPEDTAVYYCARRSPNPYSIYYYWGQGTQVTVSS = high polyreactivity
QVQLVESGGGLVQAGGSLRLSCAASGSIFWSYDMGWYRQAPGKERELVPTITSGDSTYYADSVKGRFTISRDNAKNTVYLQMNSLKPEDTAVYYCAAGTYYRRTYWHREYDYWGQGTQVTVSS = low polyreactivity
QVQLVESGGGLVQAGGSLRLSCAASGRTFYGYAMGWYRQAPGKERELVAAISKTGGSTYYADSVKGRFTISRDNAKNTVYLQMNSLKPEDTAVYYCNARRIYRLEYDSWGQGTQVTVSS = high polyreactivity

# polyreactivity (PSR sort gate) of QVQLVESGGALVQAGGSLRLSCAASGRTFGHNAMGCSRQAPGKEREFVAAITYSGVRTFYADSVKGRFTISRDNAQNTVYLQMNSLKPEDTAVYYCATDWRRDYDYWGQGTQVTVSS = low polyreactivity

# polyreactivity (PSR sort gate) of QVQLVESGGGLVQAGGSLRLSCDASGSIFDHNSMGWYRQAPGKERELVAAISSNGVRTYYADSVKGRFTISRDNAKNTVYLQMNSLKTEDTAVYYCNAQRFVGLNVYGYDYWGQGTQVTVSS = high polyreactivity

# polyreactivity (PSR sort gate) of QVQLVESGGGLVQAGGSHRLSCAASGRIIESYAMGWYRQAPGKERELVAAISSNDGSTYYADSVKGRFTISRDNAKNTVYLQMNSLKPEDTAVYDCAAELGQVDYGGPSYDYWGQGTQVTVSS = low polyreactivity

# polyreactivity (PSR sort gate) of QVQLVESGGGLVQAGGSLRLSCAASGSTFVRNAMGWYRQPPGKDRELVAAISWRGGSTYYADTVKGRFTISRDNAKNTVYLQMNSLKPEDTAVYYCNKVGTWQGPYDYWGQGTQVTVSS = high polyreactivity

# polyreactivity (PSR sort gate) of QVQLVESGGGLVQAGGSLRLSCAASGRTFWYYGMGWYRQAPGKERELVAAISRSGGRTSYADSVKGRFTISRDNAKNTVYLQMNSLKPEDTAVYYCATDGYYRYGYWGQGTQVTVSS = high polyreactivity

# polyreactivity (PSR sort gate) of QVQLVESGGGLVQAGGSLRLSCAASGLTFERYAMGWNREAPGKERELVAAISGSGGSTYYADSVKGRFTISRDNAKNTVYLQMNSLTPEDTAVYYCAAYPTVWYDYWGQGTQVTVSS = high polyreactivity

# polyreactivity (PSR sort gate) of QVQLVESGGGLVQAGGSLRLSCAASGITFQLYAMGWYRQAPGKERELVAAIDASGGITNYADSVKGRFTISRDNAKNTVYLQMNSLKPEDTAVYYCASFFKLRYRYQFWRYGFGYWGQGTQVTVSS = high polyreactivity

# polyreactivity (PSR sort gate) of QVQLVESGGGLVQAGGSLRLSCAASGSTFQFYAMGWYRQAPGKEREFVAAITTRSGSTYYADSVKGRFTISRDNAKNTVYLQMNSLKPEDTAVYYCAAYIYGHSSDSVRYEYWGQGTQVTVSS = low polyreactivity

# polyreactivity (PSR sort gate) of QDQHVESGGGLVQAGGSLRLSCAASGGIFQSYTMGRYRQAPGKEREFVAAITYSGGSTHYADSVKGRFTISRDKAKNTVYLQMNSLKPEDTAVYYCNADRYYGRGYGYWGQGTQVTVSS = low polyreactivity

# polyreactivity (PSR sort gate) of QVQLVESGGCLVQAGGSLRLSCAASGRIFQRYAMGWYRQAPGKERELVAGITSAGGSTYYADSVKGRFTISRDNAKNTVYLQMKRLKPEDTAVYYCNAGGELRYYGYRAGGTTRSYDYWGQGTQVTVSS = low polyreactivity

# polyreactivity (PSR sort gate) of QVQLVESGGRLVQAGGSLLLSCAASGIIFYDYAMGWYRRAPGKERQLVAAITSGGSTNYADSVKGRFTISRDNAKNTVYLQMNSLKPEDTAVYYCAATYWSWISLRWYEYYYWGEGTQVTVSS = low polyreactivity

# polyreactivity (PSR sort gate) of QVQLVESGGGLVQAGGSLRLSCAASGRTIRWNDMGWYRQAPGKERELVAAITSRGGSTYYADSVKGRFTISRDNAMNTVYFQMNSLKPEDTAVYYCAKQPKPPPVTGYDYWGQGSQVTVSS = high polyreactivity

# polyreactivity (PSR sort gate) of QVQLVESGGGLVQAGGSLRLSCAASGFTVRYYAMGWYRQAPGKERELVAAISWSGGSTYYADSVKGRFTISRDNAKNTVYLQMNSLKPEDTAVYYCNRETSPKVYYPNDYWGQGTQVTVSS = low polyreactivity

# polyreactivity (PSR sort gate) of QVQLVESGGGLVQAGGSLRLSCAASGSTIYRNTMGWYRQAPGKERELVAAISRSGSSTYYADSVKGRFTISRDNAKNTVFLQINSLKPEDTAVYYCAKEGLSYRYYYWGQGTQLTVSS = high polyreactivity

# polyreactivity (PSR sort gate) of QVQLVESWGGLVHAGGSLRLSCAASGSTFAGYAMGWYRKATGTERELVATITYSGGSTYYADSVKGRFTISRDNAKNTVYLQMNSLKTEDTAVYYCAKKASYWWGYEYWGQGTQVTVSS = low polyreactivity

# polyreactivity (PSR sort gate) of QVQLVESGGGLVQAGGSLRLSCAASGRTFRIYAMGWYRQAPGKERELVASISWSGGSTYYADSVKGRFTISRDNAKNTVYLQMNSLKPEDTAVYYCAADYPFIALYDYWGQGTQVTVSS = low polyreactivity
